Entries and their Kd values follow.
ASSAYED SYSTEM: TBC1D23 C-terminal domain (Mus musculus, UniProt Q8K0F1)
Construct: TBC1D23 C-terminal domains were gel-filtered into buffer; GST (N, cleaved yes); made in house; host or cells: E. coli BL21 pLysS
Sequence (Q8K0F1 559-684 limits assumed): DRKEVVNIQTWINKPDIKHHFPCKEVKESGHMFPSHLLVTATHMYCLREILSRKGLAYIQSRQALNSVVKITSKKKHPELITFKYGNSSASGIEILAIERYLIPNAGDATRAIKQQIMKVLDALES
RUN DESCRIPTION: ITC of cargo and mutant syntaxin-16 peptides binding to wild-type TBC1D23 C-terminal domain
SETUP CONDITIONS: 20°C, pH 7.4, mean of three runs, read-out: Mean affinity
Residues, ends and D or L forms follow the SMILES beside them.
The reply should be a number in µM, with the unit left off.

Can you share its Kd? I mean this compound: CC(C)C[C@H](NC(=O)[C@@H](NC(=O)[C@H](CC(N)=O)NC(=O)[C@H](CC(=O)O)NC(=O)[C@@H](N)CC(=O)O)[C@@H](C)O)C(=O)N[C@@H](Cc1c[nH]c2ccccc12)C(=O)N[C@@H](Cc1c[nH]cn1)C(=O)N[C@@H](CCCNC(=N)N)C(=O)NCC(=O)N[C@@H](Cc1ccccc1)C(=O)N[C@H](C(=O)N[C@@H](CCC(=O)O)C(=O)N[C@@H](CC(=O)O)C(=O)O)[C@@H](C)O [STX16_YtoW] (H-DDNTLWHRGFTED-OH)
5.64

Now the same for CC(C)[C@H](NC(=O)[C@@H](NC(=O)[C@H](CCC(=O)O)NC(=O)[C@H](CCC(=O)O)NC(=O)[C@H](CC(=O)O)NC(=O)[C@H](CO)NC(=O)[C@@H](N)CC(=O)O)[C@@H](C)O)C(=O)N[C@@H](Cc1ccccc1)C(=O)N[C@@H](CCC(=O)O)C(=O)N[C@@H](CO)C(=O)O [FAM174C_TVF] (H-DSDEETVFES-OH)
15.7

Now the same for C[C@@H](O)[C@H](NC(=O)[C@H](Cc1ccccc1)NC(=O)CNC(=O)[C@H](CCCNC(=N)N)NC(=O)[C@H](Cc1c[nH]cn1)NC(=O)[C@H](Cc1ccc(O)cc1)NC(=O)[C@H](Cc1ccccc1)NC(=O)[C@@H](NC(=O)[C@H](CC(N)=O)NC(=O)[C@H](CC(=O)O)NC(=O)[C@@H](N)CC(=O)O)[C@@H](C)O)C(=O)N[C@@H](CCC(=O)O)C(=O)N[C@@H](CC(=O)O)C(=O)O [STX16_LtoF] (H-DDNTFYHRGFTED-OH)
151

Now the same for CC[C@H](C)[C@H](NC(=O)[C@@H](NC(=O)[C@H](CC(=O)O)NC(=O)[C@H](CCC(N)=O)NC(=O)[C@H](CC(=O)O)NC(=O)[C@H](CO)NC(=O)[C@H](CC(=O)O)NC(=O)[C@H](Cc1ccccc1)NC(=O)[C@H](CCC(=O)O)NC(=O)[C@H](CO)NC(=O)[C@@H](N)CCC(=O)O)[C@@H](C)O)C(=O)N[C@@H](Cc1ccccc1)C(=O)O [KIAA0319_TIF] (H-ESEFDSDQDTIF-OH)
35.2

More entries:
Can you share its Kd? I mean this compound: CC(C)[C@H](NC(=O)[C@@H](NC(=O)[C@H](Cc1ccccc1)NC(=O)[C@H](CC(=O)O)NC(=O)CNC(=O)[C@H](CC(=O)O)NC(=O)[C@H](CCC(=O)O)NC(=O)[C@H](CC(N)=O)NC(=O)[C@H](CCC(=O)O)NC(=O)[C@H](CCC(=O)O)NC(=O)[C@@H](N)CC(=O)O)[C@@H](C)O)C(=O)N[C@@H](Cc1ccc(O)cc1)C(=O)N[C@@H](CCC(=O)O)C(=O)N[C@@H](CS)C(=O)O [NPDC1_TVY] (H-DEENEDGDFTVYEC-OH)
2.91

Now the same for CC(C)C[C@H](NC(=O)[C@@H](NC(=O)[C@H](CCC(=O)O)NC(=O)[C@H](CCC(=O)O)NC(=O)[C@@H](N)CCC(=O)O)[C@@H](C)O)C(=O)N[C@@H](Cc1ccc(O)cc1)C(=O)N[C@@H](CO)C(=O)N[C@@H](CO)C(=O)N[C@@H](CCCCN)C(=O)N[C@@H](Cc1c[nH]cn1)C(=O)O [CPD_TLY] (H-EEETLYSSKH-OH)
10.6
